The entries below are paired with their reported IC50.
Biological target: Histone deacetylase 1 (Homo sapiens)
Sequence (Q13547 whole entry): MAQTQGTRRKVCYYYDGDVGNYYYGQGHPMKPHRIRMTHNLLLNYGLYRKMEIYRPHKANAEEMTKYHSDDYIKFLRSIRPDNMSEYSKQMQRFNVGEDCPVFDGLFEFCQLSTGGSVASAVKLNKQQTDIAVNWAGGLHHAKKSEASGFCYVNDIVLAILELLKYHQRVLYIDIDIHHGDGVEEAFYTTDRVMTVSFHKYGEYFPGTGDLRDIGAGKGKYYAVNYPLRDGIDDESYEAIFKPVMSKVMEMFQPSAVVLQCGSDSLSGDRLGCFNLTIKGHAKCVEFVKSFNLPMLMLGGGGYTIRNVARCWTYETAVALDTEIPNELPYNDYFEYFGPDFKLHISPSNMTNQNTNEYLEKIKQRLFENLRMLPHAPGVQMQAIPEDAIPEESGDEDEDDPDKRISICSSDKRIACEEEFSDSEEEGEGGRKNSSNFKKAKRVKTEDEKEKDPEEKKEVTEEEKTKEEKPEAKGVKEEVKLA
Experiment: Inhibition of human recombinant HDAC1 using Ac-Leu-Gly-Lys(Ac)-AMC as substrate preincubated with enzyme for 30 mins followed by substrate addition and measured after 90 mins by fluorescence based analysis
All answers are understood in nM, so give the number only.

Consider the following illustrative entries.
O=C(NO)c1ccc(COc2ccc(CNC(=O)[C@@H]3CCC(=O)N3Cc3ccccc3)cc2)cc1 : 1980
Nc1ccccc1NC(=O)c1ccc(COc2ccc(CNC(=O)[C@@H]3CCCN3Cc3ccccc3)cc2)cc1 : 113
Nc1ccccc1NC(=O)c1ccc(COc2ccc(CNC(=O)[C@@H]3CCCN3Cc3ccc(F)cc3)cc2)cc1 : 130
Nc1ccccc1NC(=O)c1ccc(COc2ccc(CNC(=O)c3cc4ccccc4[nH]3)cc2)cc1 : 182
Nc1ccccc1NC(=O)c1ccc(COc2ccc(CNC(=O)C3CCCO3)cc2)cc1 (centres undefined) : 111

Returns the measured IC50 for the input compound. Input: Nc1ccccc1NC(=O)c1ccc(COc2ccc(CNC(=O)[C@@H]3CCC(=O)N3Cc3ccccc3)cc2)cc1
100

Returns the measured IC50 for the input compound. Input: NCc1ccc(OCc2ccc(C(=O)Nc3ccccc3N)cc2)cc1
100

---

Molecular target: Histone deacetylase 1 (Homo sapiens)
Test: Inhibition of human recombinant HDAC1 using Ac-Leu-Gly-Lys(Ac)-AMC as substrate preincubated with enzyme for 30 mins followed by substrate addition and measured after 90 mins by fluorescence based analysis
pIC50: −log10 of the molar value.
Kindly return 1 if reported pIC50 is no lower than 7; return -1 if it is lower.

The following molecules have reported results that may help.
Nc1ccccc1NC(=O)c1ccc(COc2ccc(CNC(=O)[C@@H]3CCC(=O)N3Cc3ccc(Br)cc3)cc2)cc1 : 1
Nc1ccccc1NC(=O)c1ccc(COc2ccc(CNC(=O)[C@@H]3CCCN3C(=O)c3ccccc3)cc2)cc1 : -1

Is pIC50 at least 7? Consider Cl.Cl.Nc1ccccc1NC(=O)c1ccc(COc2ccc(CNC(=O)[C@H]3CCCN3)cc2)cc1
-1

Is pIC50 at least 7? Consider O=C(O)c1ccc(COc2ccc(CNC(=O)[C@@H]3CCC(=O)N3Cc3ccccc3)cc2)cc1
-1

Is pIC50 at least 7? Consider CC(C)(C)OC(=O)NCc1ccc(OCc2ccc(C(=O)Nc3ccccc3N)cc2)cc1
-1

---

The entries below are paired with their reported IC50.
Target: Histone deacetylase 1 (Homo sapiens)
Assay: Inhibition of human recombinant HDAC1 using Ac-Leu-Gly-Lys(Ac)-AMC as substrate preincubated with enzyme for 30 mins followed by substrate addition and measured after 90 mins by fluorescence based analysis
All answers are understood in nM, so give the number only.

Nc1ccccc1NC(=O)c1ccc(COc2ccc(CNC(=O)[C@@H]3CCC(=O)N3Cc3ccc(F)cc3)cc2)cc1 : 216
Nc1ccccc1NC(=O)c1ccc(COc2ccc(CNC(=O)c3ccccn3)cc2)cc1 : 200

Next item in the queue.
Returns the measured IC50 for the input compound. Input: Nc1ccccc1NC(=O)c1ccc(COc2ccc(CNC(=O)[C@@H]3CCCN3)cc2)cc1
55

---

Biological target: UniProt O15379
Sequence (O15379 whole entry): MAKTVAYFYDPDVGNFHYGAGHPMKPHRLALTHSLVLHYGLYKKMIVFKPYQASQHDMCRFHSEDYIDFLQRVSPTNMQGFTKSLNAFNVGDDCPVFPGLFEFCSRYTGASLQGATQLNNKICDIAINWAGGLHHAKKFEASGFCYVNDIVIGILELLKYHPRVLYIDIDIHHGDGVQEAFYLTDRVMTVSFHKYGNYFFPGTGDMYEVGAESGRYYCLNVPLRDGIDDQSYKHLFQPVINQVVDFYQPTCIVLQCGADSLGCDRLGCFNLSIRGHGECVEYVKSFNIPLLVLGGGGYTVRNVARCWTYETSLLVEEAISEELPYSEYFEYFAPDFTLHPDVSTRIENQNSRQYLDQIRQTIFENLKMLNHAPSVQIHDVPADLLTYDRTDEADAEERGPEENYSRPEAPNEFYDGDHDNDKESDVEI
Assay: Inhibition of human recombinant HDAC3 using Ac-Leu-Gly-Lys(Ac)-AMC as substrate preincubated with enzyme for 30 mins followed by substrate addition and measured after 90 mins by fluorescence based analysis
value_type: pIC50
Bear in mind: pIC50 is minus log10 of a mol/L concentration; give just that figure.

Consider the following illustrative entries.
Nc1ccccc1NC(=O)c1ccc(COc2ccc(CNC(=O)[C@@H]3CCCN3Cc3ccccc3)cc2)cc1 : 6.41
Nc1ccccc1NC(=O)c1ccc(COc2ccc(CNC(=O)[C@@H]3CCCN3)cc2)cc1 : 7.21
Nc1ccccc1NC(=O)c1ccc(COc2ccc(CNC(=O)[C@@H]3CCC(=O)N3Cc3ccccc3)cc2)cc1 : 6.44
Cl.Cl.Nc1ccccc1NC(=O)c1ccc(COc2ccc(CNC(=O)[C@H]3CCCN3)cc2)cc1 : 6.86
Nc1ccccc1NC(=O)c1ccc(COc2ccc(CNC(=O)[C@H]3CCC(=O)N3Cc3ccccc3)cc2)cc1 : 6.37

Next item in the queue.
Returns the measured pIC50 for the input molecule. Input: NCc1ccc(OCc2ccc(C(=O)Nc3ccccc3N)cc2)cc1
7.28

Hey, just so you know, these numbers are from ChEMBL document CHEMBL5370603.
